test system: 786-0; assay: NCI tumour cell line growth inhibition, 48 h
The source made the active and inactive calls. Cut-off read from the data, not from the text of the source: active = GI50 up to about 1.1 µM and inactive = higher.
Result type: GI50

[[record]]
molecule = "O=C1/C(=C/c2cccc(Br)c2)CSC/C1=C\\c1cccc(Br)c1"
measured = "3.45 µM (inactive)"

[[record]]
molecule = "COc1cc(/C=C2/SC(c3ccccc3)N(c3ccccc3Cl)C2=O)cc(OC)c1OC (centres undefined)"
measured = "25.9 µM (inactive)"

[[record]]
molecule = "CN(O)C(=O)CCC(NC(=O)CCC(N)C(=O)O)C(=O)NCC(=O)O (centres undefined)"
measured = "> 100 µM (inactive)"

[[record]]
molecule = "CO[C@H]1SC[C@H](OC(C)=O)[C@H](OC(C)=O)[C@H]1OC(C)=O"
measured = "> 100 µM (inactive)"

[[record]]
molecule = "COc1ccc(C(=O)/C=C/c2ccc(OCCCCCCCCCCOc3ccc(/C=C/C(=O)c4ccc(OC)cc4)cc3)cc2)cc1"
measured = "> 100 µM (inactive)"

[[record]]
molecule = "CC(C)[C@H]1NC(=O)[C@H]2N=C(O[C@@H]2C)[C@@H]2CCCN2C(=O)[C@H](Cc2ccccc2)NC(=O)[C@@H]2CSC(=N2)[C@@H](Cc2ccccc2)NC(=O)[C@@H]2CSC1=N2"
measured = "> 100 µM (inactive)"


Hello, please tell me recorded GI50 for this one: Cc1c(C2Cc3ccccc3N2)c2ccccc2n1C (centres undefined) > 100 µM (inactive)

Give the value of GI50 reported for the following: Cc1ccccc1/N=N/c1ccc(/N=N/c2c(O)ccc3cc(S(=O)(=O)O)cc(S(=O)(=O)O)c23)c(C)c1 > 100 µM (inactive)

----------
system: BT-549; test: NCI tumour cell line growth inhibition, 48 h
The source made the active and inactive calls. Rule as the data show it: active = GI50 up to about 1.1 µM and inactive = higher. Where a SMILES comes first, the peptide text is derived from it. The star is where a group is joined. Cbz = O=C(OCc1ccccc1)*; OBn = c1ccc(CO*)cc1
Result type: GI50

Here is how some compounds turned out for GI50.
[[record]]
compound = "C[N+](C)([O-])Cc1cccc(NC(=O)c2ccc(C(=O)Nc3cccc(C[N+](C)(C)[O-])c3)cc2)c1"
measured = "> 100 µM (inactive)"

[[record]]
compound = "S=C(N1CCN(c2cccc(Cl)c2)CC1)N1CCN(c2cccc(Cl)c2)CC1"
measured = "75.3 µM (inactive)"

[[record]]
compound = "COc1ccc(/C(Cl)=C(\\C#N)c2ccc(OC)c(OC)c2)cc1OC"
measured = "57.7 µM (inactive)"

[[record]]
compound = "CN(CC(=O)O)CC(=O)O"
measured = "> 100 µM (inactive)"

[[record]]
compound = "COc1ccc(CNC(=O)[C@H](Cc2ccc(O)cn2)NC(C)=O)cc1"
measured = "> 100 µM (inactive)"

[[record]]
compound = "COC(=O)C(Cc1ccc(O)cc1)NC(=O)C(CC(=O)OCc1ccccc1)NC(=O)OCc1ccccc1 (centres undefined) (Cbz-Asp(OBn)-Tyr-OMe; configuration not given here)"
measured = "22.6 µM (inactive)"

[[record]]
compound = "COc1cc2c(cc1OC)CCc1cc(OC)c(OC)cc1CC2"
measured = "> 100 µM (inactive)"

[[record]]
compound = "O=[N+]([O-])/C(C(Cl)=C(Cl)Cl)=C(\\Nc1ccccc1)n1nnc2ccccc21"
measured = "27 µM (inactive)"


# evaluate next
Give recorded GI50. CCOC(=O)C(NC(=O)CC)(N1CCN(c2cc3c(cc2F)c(=O)c(C(=O)O)cn3C2CC2)CC1)C(F)(F)F (centres undefined) > 100 µM (inactive)
